Data provenance is ChEMBL document CHEMBL3046604.

Form field: inhibition of growth at 200 µg/mL (one value per entry).
# Tested on: Rhizoctonia solani
# Procedure text: Fungistatic activity against Rhizoctonia solani assessed as mycelial growth inhibition at 200 ug/ml after 4 to 8 days relative to control
# Type: functional
# Experimental setup: read-out: GI

{"Smi": "O=C(OC/C=C/c1ccccc1)c1ccccc1NC(=S)c1ccc(O)cc1O", "inhibition of growth at 200 µg/mL (%)": 81}
{"Smi": "O=C(O)c1cc2cc(OCc3ccccc3)ccc2n1C(=S)c1ccc(O)cc1O", "inhibition of growth at 200 µg/mL (%)": 0}
{"Smi": "CCOC(=O)Cc1csc(NC(=S)c2ccc(O)cc2O)n1", "inhibition of growth at 200 µg/mL (%)": 0}
{"Smi": "N#CCc1nn(-c2ccccc2)c(NC(=S)c2ccc(O)cc2O)c1C#N", "inhibition of growth at 200 µg/mL (%)": 21}
{"Smi": "Oc1ccc(C(=S)NN=C(c2ccccc2)c2ccccc2)c(O)c1", "inhibition of growth at 200 µg/mL (%)": 0}
{"Smi": "COC(=O)Nc1nc2ccccc2[nH]1", "inhibition of growth at 200 µg/mL (%)": 81}

----------
Known log K of a selection of molecules
# Procedure text: Lipophilicity, log K of the compound in methanol-water mixture by HPLC
# Format: physicochemical

{"Smi": "O=C(NNC(=S)c1ccc(O)cc1O)c1ccncc1", "log K": -0.21}
{"Smi": "Oc1ccc(C(=S)Nc2ccccc2Sc2ccc(Cl)cc2)c(O)c1", "log K": 0.446}
{"Smi": "O=C(Nc1ccccc1)c1ccccc1NC(=S)c1ccc(O)cc1O", "log K": -0.37}
{"Smi": "Oc1ccc(C(=S)Nc2ccccc2-c2ccccc2)c(O)c1", "log K": 0.118}
{"Smi": "Oc1ccc(C(=S)Nc2ccc(OCc3ccccc3)cc2)c(O)c1", "log K": 0.423}
{"Smi": "Oc1ccc(C(=S)n2c(Cl)nc3ccccc32)c(O)c1", "log K": 0.378}
{"Smi": "Oc1ccc(C(=S)NC(=S)c2cccnc2)c(O)c1", "log K": 0.751}
{"Smi": "COc1ccc(COC(=O)NNC(=S)c2ccc(O)cc2O)cc1", "log K": 0.103}
{"Smi": "Oc1ccc(C(=S)Nc2ccc(Oc3ccccc3)cc2)c(O)c1", "log K": 1.305}
{"Smi": "Oc1ccc(C(=S)NN=C2c3ccccc3-c3ccccc32)c(O)c1", "log K": 0.232}
{"Smi": "Oc1ccc(C(=S)n2nnc3cc(Cl)ccc32)c(O)c1", "log K": 0.936}
{"Smi": "O=C(O)c1cc2cc(OCc3ccccc3)ccc2n1C(=S)c1ccc(O)cc1O", "log K": 0.405}
{"Smi": "Oc1ccc(C(=S)NN=C(c2ccccc2)c2ccccc2)c(O)c1", "log K": 0.642}
{"Smi": "Oc1ccc(C(=S)Nc2cc(C(F)(F)F)ccc2N2CCOCC2)c(O)c1", "log K": 0.035}
{"Smi": "O=C(OC/C=C/c1ccccc1)c1ccccc1NC(=S)c1ccc(O)cc1O", "log K": 0.488}
{"Smi": "CCOC(=O)c1c(C)csc1NC(=S)c1ccc(O)cc1O", "log K": -0.28}
{"Smi": "CC(C)(C)c1cc(NC(=S)c2ccc(O)cc2O)no1", "log K": -0.302}
{"Smi": "N#CCc1nn(-c2ccccc2)c(NC(=S)c2ccc(O)cc2O)c1C#N", "log K": 0.373}
{"Smi": "Oc1ccc(C(=S)NNC(=S)Nc2cccc(Cl)c2)c(O)c1", "log K": 0.229}
{"Smi": "CC(C)(C)c1nnc(NC(=S)c2ccc(O)cc2O)s1", "log K": -0.131}
{"Smi": "O=C(CC(=O)c1ccc(NC(=S)c2ccc(O)cc2O)cc1)Nc1ccccc1Cl", "log K": -0.29}
{"Smi": "Oc1ccc(C(=S)NNc2nncc3ccccc23)c(O)c1", "log K": 0.228}
{"Smi": "CCOc1ccc(C(=O)NNC(=S)c2ccc(O)cc2O)cc1", "log K": 0.352}
{"Smi": "Oc1ccc(C(=S)NNC(=S)Nc2ccc(F)cc2)c(O)c1", "log K": 0.24}
{"Smi": "Oc1ccc(C(=S)NC2=NN(c3ccccc3)CC2)c(O)c1", "log K": 0.643}
{"Smi": "CCOC(=O)Cc1csc(NC(=S)c2ccc(O)cc2O)n1", "log K": 0.048}
